Every entry's value here was drawn from ChEMBL document CHEMBL1158530.

- Protocol Notes: Chemical stability assessed as compound remaining at pH 7.4 after 24 hrs by modified HPLC method
- Assay type: physicochemical
- Condition Context: buffer, read-out: Stability
Experimental Readout: remaining at 24 h
Please make sure the unit comes right after the number.

[
  {
    "Chem Smiles": "CCCCCOP(=O)(OCCCCC)Oc1ccc2nc3c(c(C)c2c1)Cn1c-3cc2c(c1=O)COC(=O)C[C@]2(O)CC",
    "remaining at 24 h": "91%"
  }
]

Now look at this one.
// query Provide remaining at 24 h value for the following compound: CCCCOP(=O)(OCCCC)Oc1ccc2nc3c(c(C)c2c1)Cn1c-3cc2c(c1=O)COC(=O)C[C@]2(O)CC
// result 95%

====

- Tested on: MDA-MB-435
- Protocol Notes: Cytotoxicity against human MDA-MB-435 cells after 72 hrs by MTT assay
- Type: functional, cell-based
- Condition Context: MDA-MB-435, 72 h
pIC50: −log10 of the molar value.
Each entry gets f if its pIC50 stays under 6, and t if its pIC50 is 6 or above.

[
  {
    "Molecule": "CC[C@@]1(O)CC(=O)OCc2c1cc1n(c2=O)Cc2c-1nc1ccc(O)cc1c2C",
    "Class": "t"
  }
]

// query For this molecule, is measured pIC50 6 or higher? CC[C@@]1(O)CC(=O)OCc2c1cc1n(c2=O)Cc2c-1nc1ccc(OP(=O)(O)OCc3ccccc3)cc1c2C
// result f

// query Would you say CC[C@@]1(O)C(=O)OCc2c1cc1n(c2=O)Cc2cc3c(CN(C)C)c(O)ccc3nc2-1 [TOPOTECAN] shows pIC50 at minimum 6?
// result t

// query hey, is pIC50 for this one >= 6? CC[C@@]1(O)CC(=O)OCc2c1cc1n(c2=O)Cc2c-1nc1ccc(OP(=O)(OC(C)C)OC(C)C)cc1c2C
// result f

====

molecules and their reported pIC50
- System: A549
- Protocol Notes: Cytotoxicity against human A549 cells after 72 hrs by MTT assay
- Format: functional, cell-based
- Condition Context: A549, 72 h
Just the number, please; pIC50 means minus log10 of the concentration in mol/L.

[
  {
    "Molecule": "CCCCOP(=O)(OCCCC)Oc1ccc2nc3c(c(C)c2c1)Cn1c-3cc2c(c1=O)COC(=O)C[C@]2(O)CC",
    "Measurement Target": "A549",
    "Experimental Readout": "pIC50",
    "Test Value": 5.55
  },
  {
    "Molecule": "CC[C@@]1(O)C(=O)OCc2c1cc1n(c2=O)Cc2cc3c(CN(C)C)c(O)ccc3nc2-1 [TOPOTECAN]",
    "Measurement Target": "A549",
    "Experimental Readout": "pIC50",
    "Test Value": 7.40
  },
  {
    "Molecule": "CC[C@@]1(O)CC(=O)OCc2c1cc1n(c2=O)Cc2c-1nc1ccc(O)cc1c2C",
    "Measurement Target": "A549",
    "Experimental Readout": "pIC50",
    "Test Value": 7.52
  },
  {
    "Molecule": "CCc1c2c(nc3ccc(OC(=O)N4CCC(N5CCCCC5)CC4)cc13)-c1cc3c(c(=O)n1C2)COC(=O)[C@]3(O)CC [IRINOTECAN]",
    "Measurement Target": "A549",
    "Experimental Readout": "pIC50",
    "Test Value": 5.34
  },
  {
    "Molecule": "CC[C@@]1(O)CC(=O)OCc2c1cc1n(c2=O)Cc2c-1nc1ccc(OP(=O)(O)OCc3ccccc3)cc1c2C",
    "Measurement Target": "A549",
    "Experimental Readout": "pIC50",
    "Test Value": 4.53
  },
  {
    "Molecule": "CC[C@@]1(O)CC(=O)OCc2c1cc1n(c2=O)Cc2c-1nc1ccc(OP(=O)(OCC(F)(F)F)OCC(F)(F)F)cc1c2C",
    "Measurement Target": "A549",
    "Experimental Readout": "pIC50",
    "Test Value": 4.81
  }
]

// query For CCCCCOP(=O)(OCCCCC)Oc1ccc2nc3c(c(C)c2c1)Cn1c-3cc2c(c1=O)COC(=O)C[C@]2(O)CC , write its pIC50.
// result 5.64

// query Tell me its pIC50 given CC[C@@]1(O)CC(=O)OCc2c1cc1n(c2=O)Cc2c-1nc1ccc(OP(=O)(OC(C)C)OC(C)C)cc1c2C as the entry.
// result 4.94

====

- Test system: MDA-MB-435
- Protocol Notes: Cytotoxicity against human MDA-MB-435 cells after 72 hrs by MTT assay
- Type: functional, cell-based
- Condition Context: MDA-MB-435, 72 h
# pIC50 values compiled below
pIC50 here: minus log base 10 of the concentration, concentration in moles per litre.

Worked set:
[
  {
    "Chem Smiles": "CCOP(=O)(O)Oc1ccc2nc3c(c(C)c2c1)Cn1c-3cc2c(c1=O)COC(=O)C[C@]2(O)CC",
    "Measurement Target": "MDA-MB-435",
    "pIC50": 5.28
  },
  {
    "Chem Smiles": "CCOP(=O)(OCC)Oc1ccc2nc3c(c(C)c2c1)Cn1c-3cc2c(c1=O)COC(=O)C[C@]2(O)CC",
    "Measurement Target": "MDA-MB-435",
    "pIC50": 6.10
  },
  {
    "Chem Smiles": "CCCCCOP(=O)(OCCCCC)Oc1ccc2nc3c(c(C)c2c1)Cn1c-3cc2c(c1=O)COC(=O)C[C@]2(O)CC",
    "Measurement Target": "MDA-MB-435",
    "pIC50": 6.14
  },
  {
    "Chem Smiles": "CCc1c2c(nc3ccc(OC(=O)N4CCC(N5CCCCC5)CC4)cc13)-c1cc3c(c(=O)n1C2)COC(=O)[C@]3(O)CC",
    "Measurement Target": "MDA-MB-435",
    "pIC50": 5.94
  }
]

// query // fetch pIC50; item: CCCCOP(=O)(OCCCC)Oc1ccc2nc3c(c(C)c2c1)Cn1c-3cc2c(c1=O)COC(=O)C[C@]2(O)CC ; system: MDA-MB-435
// result 6.29

// query Provide measured pIC50 on MDA-MB-435 for CC[C@@]1(O)CC(=O)OCc2c1cc1n(c2=O)Cc2c-1nc1ccc(OP(=O)(OCC(F)(F)F)OCC(F)(F)F)cc1c2C please.
// result 6.66
